Measured on: T1, hu-M-IL1RAP construct, positions S21-T367 (extracellular domain of the membrane form of human IL1RAP) (human, UniProt Q9NPH3 21-367)
T1 construct: Biotinylated when captured on the Biacore chip
T1 sequence: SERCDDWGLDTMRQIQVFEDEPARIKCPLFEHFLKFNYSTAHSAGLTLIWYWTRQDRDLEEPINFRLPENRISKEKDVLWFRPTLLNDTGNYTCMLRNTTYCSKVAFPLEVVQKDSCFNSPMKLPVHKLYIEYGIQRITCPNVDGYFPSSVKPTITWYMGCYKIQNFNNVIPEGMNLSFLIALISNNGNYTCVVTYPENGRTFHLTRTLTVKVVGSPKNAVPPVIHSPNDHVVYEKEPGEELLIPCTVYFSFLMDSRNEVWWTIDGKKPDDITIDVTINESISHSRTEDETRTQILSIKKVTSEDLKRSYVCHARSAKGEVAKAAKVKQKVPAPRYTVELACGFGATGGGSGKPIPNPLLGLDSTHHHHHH
Experiment description: SPR, Fab analyte, 25 C
Give measured koff for each item. Keep answers brief.
Numbers only, in s⁻¹.

Known koff results, listed for orientation:
Binder	koff [s⁻¹]
H2 Fab (VH R96D) (Fab, V domains shown, Fab with 8xHis tag) VH: EVQLVESGGGLVQPGGSLRLSCAASGFTFSNYAMSWVRQAPGKGLEWVATVTEGGDYNYYLDDVKGRFTISRDNAKNSLYLQMNSLRAEDTAVYYCARDDWPYFFDYWGQGTLVTVSS VL: DIQMTQSPSSLSASVGDRVTITCRASENIYSNLAWYQQKPGKSPKLLVYGAKNLADGVPSRFSGSGSGTDYTLTISSLQPEDFATYYCQHFWTTPRTFGGGTKVEIK	0.000219
K4 Fab (VL W92L) (Fab, V domains shown, Fab with 8xHis tag) VH: EVQLVESGGGLVQPGGSLRLSCAASGFTFSNYAMSWVRQAPGKGLEWVATVTEGGDYNYYLDDVKGRFTISRDNAKNSLYLQMNSLRAEDTAVYYCARDRWPYFFDYWGQGTLVTVSS VL: DIQMTQSPSSLSASVGDRVTITCRASENIYSNLAWYQQKPGKSPKLLVYGAKNLADGVPSRFSGSGSGTDYTLTISSLQPEDFATYYCQHFLTTPRTFGGGTKVEIK	0.000751

Record K14 Fab (VL T94I) (Fab, V domains shown, Fab with 8xHis tag) VH: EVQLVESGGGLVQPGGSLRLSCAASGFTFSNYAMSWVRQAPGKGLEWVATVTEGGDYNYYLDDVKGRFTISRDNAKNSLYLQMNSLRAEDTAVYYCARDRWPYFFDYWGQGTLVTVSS VL: DIQMTQSPSSLSASVGDRVTITCRASENIYSNLAWYQQKPGKSPKLLVYGAKNLADGVPSRFSGSGSGTDYTLTISSLQPEDFATYYCQHFWTIPRTFGGGTKVEIK . Reported koff: 0.000543
